z-score: recorded values
Experiment: resazurin metabolic signal in A549 cells – cell-based, resazurin fluorescence, 24 h, PK04 Diversity Set, profiling panel (AID 1171); further: test concentration not given here
Settings: A549 viability, higher = more signal, called active from +8 up or from −8 down
Reply briefly: the number, and no unit.

Here are 5 compounds together with their reported answers.
[[record]]
compound = "Cc1ccc(-c2cccc(=O)o2)cc1"
measurement = -0.0164

[[record]]
compound = "O=C1C[C@@](C(=O)NCc2ccccc2)(c2ccc([N+](=O)[O-])cc2)[C@@H](c2ccc(CO)cc2I)N1C1CCCCC1"
measurement = 0.75

[[record]]
compound = "CC(C)(C)OC(=O)CC[C@@]1(C(=O)N2CCCCC2)N=C(c2ccc(OCCCO)cc2)O[C@@H]1c1ccccc1CN=[N+]=[N-]"
measurement = 0.642

[[record]]
compound = "CC(C)CNC(=O)[C@@]1(C)c2ccccc2C(=O)N(Cc2ccccc2)[C@H]1c1ccc(CO)cc1"
measurement = 0.407

[[record]]
compound = "COC(=O)[C@]1(Cc2ccccc2N=[N+]=[N-])N=C(c2ccc(OCCCO)cc2)O[C@@H]1c1ccccc1"
measurement = -5.19


Request: # input compound: CC(C)C(CO)N1C(=O)[C@@H]2[C@H]3C(=O)OCC=C[C@H]3OC23C=CCN(CCN2CCOCC2)C(=O)[C@@H]13 (stereo partly drawn) ; wanted: its z-score
Result: -0.324

Request: Another compound: CC(C)N1CC=CC23O[C@@H]4C=CCOC(=O)[C@@H]4[C@H]2C(=O)N(CCCCCCO)[C@@H]3C1=O (stereo partly drawn)
Result: 0.64

Request: Another compound: O=C1c2ccccc2C(=O)C2CC([C@H]3Oc4ccccc4S(=O)(=O)N4CCC[C@@H]34)=CCC12 (stereo partly drawn)
Result: 0.178

====

Target: Left-right determination factor 2 (Homo sapiens) (UniProt O00292)
Sequence (O00292 whole entry, looked up): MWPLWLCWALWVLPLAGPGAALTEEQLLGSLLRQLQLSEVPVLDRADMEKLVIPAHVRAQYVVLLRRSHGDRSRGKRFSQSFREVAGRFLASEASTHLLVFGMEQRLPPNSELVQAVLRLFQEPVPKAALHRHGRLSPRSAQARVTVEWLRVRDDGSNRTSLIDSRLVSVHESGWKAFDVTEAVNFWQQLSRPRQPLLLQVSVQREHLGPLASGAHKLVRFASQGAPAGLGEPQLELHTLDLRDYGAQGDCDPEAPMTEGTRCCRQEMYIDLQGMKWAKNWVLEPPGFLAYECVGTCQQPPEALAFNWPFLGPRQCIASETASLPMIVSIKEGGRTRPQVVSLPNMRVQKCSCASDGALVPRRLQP
Assay: small molecules binding LEFTY2 protein – biochemical, small-molecule microarray, 635 nm fluorescence scan, primary screen (AID 1110)
Conditions: higher = more signal
Classes by composite z-score: low end (below 0.06), middle (0.06 to below 0.4), high end (0.4 or more)

Observe how each entry below is paired with its result.
[[record]]
molecule = "COCCOC(=O)N1C(=O)[C@@]2(c3cc(C#CCC(C(=O)OC)C(=O)OC)ccc31)[C@H](C(=O)N1CCCCCCC1)[C@H]1C(=O)O[C@H](c3ccccc3)[C@H](c3ccccc3)N1[C@@H]2c1ccc(O)cc1"
measured_on = "Left-right determination factor 2 (Homo sapiens) (UniProt O00292)"
label = "high end"

[[record]]
molecule = "C[C@]12C(=O)N(CCCO)[C@@H]3C(=O)N(c4ccc(Cl)cc4)CC=CC31O[C@@H]1/C=C\\CCCOC(=O)C12 (stereo partly drawn)"
measured_on = "Left-right determination factor 2 (Homo sapiens) (UniProt O00292)"
label = "low end"

[[record]]
molecule = "O=C1N(Cc2ccccc2)c2ccccc2[C@H]2OC(c3ccc(OCCCO)cc3)=N[C@@]12CCS(=O)(=O)c1ccccc1"
measured_on = "Left-right determination factor 2 (Homo sapiens) (UniProt O00292)"
label = "high end"

[[record]]
molecule = "COCCOC(=O)N1C(=O)[C@@]2(c3cc(C#CC4(O)CCCCCC4)ccc31)[C@H](C(=O)N1CCN(c3ncccn3)CC1)[C@H]1C(=O)O[C@H](c3ccccc3)[C@H](c3ccccc3)N1[C@@H]2c1ccc(O)cc1"
measured_on = "Left-right determination factor 2 (Homo sapiens) (UniProt O00292)"
label = "low end"

[[record]]
molecule = "COCCOC(=O)N1C(=O)[C@@]2(c3ccccc31)[C@H](c1ccc(OCCO)cc1)N1[C@H](c3ccccc3)[C@H](c3ccccc3)OC(=O)[C@H]1[C@@H]2C(=O)NC[C@H](O)c1ccccc1"
measured_on = "Left-right determination factor 2 (Homo sapiens) (UniProt O00292)"
label = "middle"

[[record]]
molecule = "C[C@H]1ON(c2ccccc2)[C@@H](c2ccccc2)[C@@H]1C(=O)N1C(=O)OC[C@@H]1c1ccccc1"
measured_on = "Left-right determination factor 2 (Homo sapiens) (UniProt O00292)"
label = "high end"


Request: # bin label for O=C1O[C@@H](c2ccccc2)[C@@H](c2ccccc2)N2[C@@H](c3ccc(O)cc3)[C@]3(C(=O)Nc4ccc(C#CC5(O)CCCCCC5)cc43)[C@@H](C(=O)N3CCN(c4ncccn4)CC3)[C@H]12
Result: middle
